Source: patent US12281080B2

Tested on: MV4-11 cells
Experiment: MV4-11-Luc proliferation assay (BLI)
Type: cell-based
Conditions: Homo sapiens, MV4-11, 168 h; 7 days
Procedure: The anti-leukemic activity was evaluated with a MV4-11 assay. […] The initial Luciferase-ZsGreen transduced cell population was sorted for ZsGreen positivity with fluorescence activated cell sorting. The MV4-11 assay was performed in 96-well plates by treating the MV4-11-Luc cells with testing compounds at different concentrations for 7 days, followed by BLI to quantify the effects of test articles on cell proliferation.
So I've got a bunch of molecules here, and I need their IC50 values.
Answer format: numeric, nM implied, no suffix.

Look up IC50 of CN1CCN(C(=O)c2ccc3cc(CCNc4ccnc5ccc(C#N)cc45)ccc3c2)CC1 and report it.
117

Answer with the recorded IC50 of CN(CCCNC(=O)OC(C)(C)C)C(=O)c1ccc2cc(CCNc3ccnc4ccc(C#N)cc34)ccc2c1 only.
181

Give a short answer stating reported IC50 for N#Cc1ccc2nccc(NCCc3ccc4cc(C(=O)N5CCSCC5)ccc4c3)c2c1 .
92

Read off the recorded IC50 for N#Cc1ccc2nccc(NCCc3ccc4cc(C(=O)N5CCS(=N)(=O)CC5)ccc4c3)c2c1
275

Hello, please tell me recorded IC50 for this one: CC(C)(C)OC(=O)N1CCN(C(=O)c2ccc3cc(CCNc4ccnc5ccc(C#N)cc45)ccc3c2)CC1
146

Provide one value: measured IC50 of CC(C)(C)OC(=O)NCCCN1CCN(C(=O)c2ccc3cc(CCNc4ccnc5ccc(C#N)cc45)ccc3c2)CC1
122

For the molecule N#Cc1ccc2nccc(NCCc3ccc4cc(C(=O)N5CC[S+]([O-])CC5)ccc4c3)c2c1 , give its measured IC50 value.
218

Given CC(=O)N1CCN(C(=O)c2ccc3cc(CCNc4ccnc5ccc(C#N)cc45)ccc3c2)CC1 , respond with its IC50.
295

* * *

assay-metric: Kd

Report its Kd with MYO3B (Homo sapiens (Human), UniProt Q8WXR4) as the test system: CN1CCN(C(=O)c2ccc3cc(CCNc4ccnc5ccc(C#N)cc45)ccc3c2)CC1 [compound 6148]
Sequence (Q8WXR4 whole entry): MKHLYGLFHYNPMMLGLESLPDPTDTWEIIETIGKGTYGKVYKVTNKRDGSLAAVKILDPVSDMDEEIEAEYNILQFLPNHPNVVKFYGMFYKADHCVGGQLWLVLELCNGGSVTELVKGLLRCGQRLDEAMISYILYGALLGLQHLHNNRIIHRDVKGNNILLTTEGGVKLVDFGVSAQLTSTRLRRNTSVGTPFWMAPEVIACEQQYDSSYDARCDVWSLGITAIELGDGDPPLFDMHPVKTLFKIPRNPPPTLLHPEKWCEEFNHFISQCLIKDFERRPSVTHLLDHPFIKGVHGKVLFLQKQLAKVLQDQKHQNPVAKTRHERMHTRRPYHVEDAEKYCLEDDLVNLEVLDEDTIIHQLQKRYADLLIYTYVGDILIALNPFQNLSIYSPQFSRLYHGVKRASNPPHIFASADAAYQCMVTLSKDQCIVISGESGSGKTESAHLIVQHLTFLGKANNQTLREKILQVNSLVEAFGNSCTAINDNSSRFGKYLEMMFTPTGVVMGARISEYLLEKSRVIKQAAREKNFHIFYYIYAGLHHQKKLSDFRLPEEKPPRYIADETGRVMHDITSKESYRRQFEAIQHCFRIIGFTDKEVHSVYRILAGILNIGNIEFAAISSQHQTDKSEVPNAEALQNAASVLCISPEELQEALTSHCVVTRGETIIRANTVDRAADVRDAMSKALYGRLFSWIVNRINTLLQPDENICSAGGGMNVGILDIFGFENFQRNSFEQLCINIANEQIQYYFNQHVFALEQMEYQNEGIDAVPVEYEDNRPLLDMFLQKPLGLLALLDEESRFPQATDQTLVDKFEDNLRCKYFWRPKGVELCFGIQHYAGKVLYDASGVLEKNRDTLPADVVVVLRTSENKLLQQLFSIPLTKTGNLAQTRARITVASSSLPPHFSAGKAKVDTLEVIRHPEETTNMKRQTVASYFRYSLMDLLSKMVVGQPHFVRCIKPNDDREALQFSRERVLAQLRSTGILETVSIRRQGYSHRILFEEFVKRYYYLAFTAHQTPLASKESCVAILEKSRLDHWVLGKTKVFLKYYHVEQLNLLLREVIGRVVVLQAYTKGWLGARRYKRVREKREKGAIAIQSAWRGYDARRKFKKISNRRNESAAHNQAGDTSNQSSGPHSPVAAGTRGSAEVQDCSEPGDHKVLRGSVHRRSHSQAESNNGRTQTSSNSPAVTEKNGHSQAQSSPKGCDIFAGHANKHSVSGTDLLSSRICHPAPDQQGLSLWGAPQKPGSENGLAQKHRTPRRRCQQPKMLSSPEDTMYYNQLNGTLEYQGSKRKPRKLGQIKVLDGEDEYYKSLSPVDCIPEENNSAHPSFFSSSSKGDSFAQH
> 30 µM

* * *

target: MAP4K2 (Homo sapiens (Human), UniProt Q12851); experiment: DiscoverX Kd assay; conditions: average from duplicate measurements
Sequence (Q12851 whole entry): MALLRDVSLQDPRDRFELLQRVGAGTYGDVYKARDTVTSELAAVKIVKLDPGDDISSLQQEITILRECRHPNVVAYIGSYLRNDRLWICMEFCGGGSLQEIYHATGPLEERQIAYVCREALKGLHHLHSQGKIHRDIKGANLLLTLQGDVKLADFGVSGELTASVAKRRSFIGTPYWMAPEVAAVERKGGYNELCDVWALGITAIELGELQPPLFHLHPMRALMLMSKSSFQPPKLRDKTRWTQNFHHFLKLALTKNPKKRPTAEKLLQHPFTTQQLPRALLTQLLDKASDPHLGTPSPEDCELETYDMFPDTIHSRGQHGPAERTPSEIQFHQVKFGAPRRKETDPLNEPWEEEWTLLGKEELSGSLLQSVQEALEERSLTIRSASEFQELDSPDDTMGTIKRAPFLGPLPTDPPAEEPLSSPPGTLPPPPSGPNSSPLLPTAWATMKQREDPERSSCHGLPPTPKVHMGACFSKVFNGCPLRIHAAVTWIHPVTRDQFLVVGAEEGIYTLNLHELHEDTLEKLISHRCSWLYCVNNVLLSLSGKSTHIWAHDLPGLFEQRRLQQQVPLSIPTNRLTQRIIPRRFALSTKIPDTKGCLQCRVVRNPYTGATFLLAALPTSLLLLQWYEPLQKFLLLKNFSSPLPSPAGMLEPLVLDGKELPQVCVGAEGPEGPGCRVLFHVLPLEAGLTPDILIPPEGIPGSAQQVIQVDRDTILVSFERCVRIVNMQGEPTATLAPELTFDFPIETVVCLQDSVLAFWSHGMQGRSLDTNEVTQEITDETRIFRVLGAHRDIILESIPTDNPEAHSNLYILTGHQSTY
assay-metric: Kd (nM)
Report the figure in nM without appending any unit label.

Report Kd for CN1CCN(C(=O)c2ccc3cc(CCNc4ncnc5ccc(C#N)cc45)ccc3c2)CC1 [Senexin B, reference compound]
570
